Assay: Luciferase activity of purified RLuc mutants (light output integrated over 10 s, luminometer)
Assay type: biochemical
Conditions: coelenterazine-n; relative to native enzyme
Method: Luminometer Calibration: Light measurements were made using a Turner 20/20 and later a Turner 20/20n luminometer (Turner Designs, Sunnyvale, Calif.). […] Characterization of Renilla Luciferase Mutants: Luciferase activity was measured by adding 1 μl of sample (diluted as necessary in EB containing 1% HSA) to 100 μl room temperature 100 mM sodium phosphate buffer (pH 7), manually adding 1 μl of 0.5 μg/μl coelenterazine or analog, manually mixing, and reading for 10 s in a luminometer. […]

MOLECULE	Activity (relative to RLuc) n
C124A/M253L: RLuc mutant C124A/M253L (protein) MASKVYDPEQRKRMITGPQWWARCKQMNVLDSFINYYDSEKHAENAVIFLHGNAASSYLWRHVVPHIEPVARCIIPDLIGMGKSGKSGNGSYRLLDHYKYLTAWFELLNLPKKIIFVGHDWGAALAFHYSYEHQDKIKAIVHAESVVDVIESWDEWPDIEEDIALIKSEEGEKMVLENNFFVETMLPSKIMRKLEPEEFAAYLEPFKEKGEVRRPTLSWPREIPLVKGGKPDVVQIVRNYNAYLRASDDLPKLFIESDPGFFSNAIVEGAKKFPNTEFVKVKGLHFSQEDAPDEMGKYIKSFVERVLKNEQ	1.6
